biological target: Glycogen synthase kinase-3 beta (Homo sapiens, UniProt P49841); assay: Inhibition of GSK-3beta (unknown origin) using biotin-labelled IRS-1 peptide as substrate incubated for 15 mins by ELISA based assay
Sequence (P49841 whole entry): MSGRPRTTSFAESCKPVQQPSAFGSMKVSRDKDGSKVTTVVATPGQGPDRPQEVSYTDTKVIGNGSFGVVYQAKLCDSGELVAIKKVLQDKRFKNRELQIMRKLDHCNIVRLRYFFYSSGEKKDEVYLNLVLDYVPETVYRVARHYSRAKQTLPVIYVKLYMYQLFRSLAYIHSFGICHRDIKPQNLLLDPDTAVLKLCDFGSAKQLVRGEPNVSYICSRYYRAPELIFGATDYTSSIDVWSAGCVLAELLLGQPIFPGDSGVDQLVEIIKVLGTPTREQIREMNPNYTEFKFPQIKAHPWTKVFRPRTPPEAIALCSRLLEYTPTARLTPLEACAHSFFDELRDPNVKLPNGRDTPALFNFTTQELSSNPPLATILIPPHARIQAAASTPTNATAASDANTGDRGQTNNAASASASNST
pIC50: −log10 of the molar value.
assay.metric: pIC50

> print(dat)
                            molecule.smiles  assay.metric  value
1  O=C(O)c1ccc(N2CCN(c3cc(NCCP(=O)(O)O)c4c5c(onc35)-c3ccccc3C4=O)CC2)cc1         pIC50   6.00
2  O=C(O)CCNc1cc(N2CCN(c3ccc(F)cc3)CC2)c2noc3c2c1C(=O)c1ccccc1-3         pIC50   5.10
3  COc1ccc(N2CCN(c3cc(NCCC(=O)O)c4c5c(onc35)-c3ccccc3C4=O)CC2)cc1         pIC50   4.74
4  O=C1c2ccccc2-c2onc3c(N4CCN(c5ccc(O)cc5)CC4)cc(NCCP(=O)(O)O)c1c23         pIC50   6.00
